Sourced from patent US20250195490A1

For each of the compounds below, state its log10 MIC.
system: hypervirulent Clostridioides difficile strains; assay: MIC against hypervirulent Clostridioides difficile strains; format: cell-based; settings: CD strain 49291
Log10 applied to MIC; unit prior to transform: µg/mL.

Could you share which log10 MIC value was measured for C=C1C(=O)O[C@H](c2ccccc2O)[C@@H]1c1cccc(C#N)c1 (racemic) ?
1.81

Could you share which log10 MIC value was measured for C=C1C(=O)O[C@H](c2c(OC)cc(OC)cc2OC)[C@@H]1c1ccc(C(F)(F)F)cc1 (racemic) ?
0.90

Could you share which log10 MIC value was measured for COc1cc(C2OC(=O)C(CN3CCCCC3)C2c2ccccc2Br)ccc1OCc1ccccc1 (racemic) ?
0.00

Could you share which log10 MIC value was measured for CC(C)(C)[Si](C)(C)OCCC1OC(=O)C(CN2CCCCC2)C1c1cccc(Br)c1 (racemic) ?
0.60

Could you share which log10 MIC value was measured for C=C1C(=O)OC(CCCCCCCC)C1C=Cc1ccccc1 (racemic) ?
0.90

Could you share which log10 MIC value was measured for C=C1C(=O)O[C@H](c2ccc(OCc3ccccc3)c(OC(C)=O)c2)[C@@H]1c1ccccc1Br (racemic) ?
0.30

---

Tested on: hypervirulent Clostridioides difficile strains
Assay: MIC against hypervirulent Clostridioides difficile strains
Format: cell-based
Conditions: CD strain 84
Experimental: The antibacterial activity of compounds 48, 50, 51, 61 and 85 against a panel of Clostridioides difficile strains was evaluated. A bacterial solution equivalent to 0.5 McFarland standard was prepared and diluted in brain heart infusion broth supplemented with hemin and vitamin K. Compounds and control drugs were added in the first row of 96-well plates and serially diluted with media containing bacteria (to achieve a concentration gradient ranging from 128 to 1 μg/mL). […]
Readout: MIC (µg/mL)
Report only the number, with the unit µg/mL understood.

Could you share which MIC value was measured for CC(C)(C)[Si](C)(C)OCCC1OC(=O)C(CN2CCCCC2)C1c1cccc(Br)c1 (racemic) ?
8

Could you share which MIC value was measured for C=C1C(=O)O[C@H](c2c(OC)cc(OC)cc2OC)[C@@H]1c1ccc(C(F)(F)F)cc1 (racemic) ?
64

Could you share which MIC value was measured for COc1cc(C2OC(=O)C(CN3CCCCC3)C2c2ccccc2Br)ccc1OCc1ccccc1 (racemic) ?
4

Could you share which MIC value was measured for C=C1C(=O)OC(CCCCCCCC)C1C=Cc1ccccc1 (racemic) ?
64

Could you share which MIC value was measured for C=C1C(=O)O[C@H](c2ccc(OCc3ccccc3)c(OC(C)=O)c2)[C@@H]1c1ccccc1Br (racemic) ?
4

---

For each of the compounds below, state its MIC E. faecalis (VRE).
system: E. faecalis (VRE); assay: microbe, parasite or virus in culture; assay type: cell-based, Enterococcus faecalis; settings: aerobic, 37° C., at least 18 hours

Could you share which MIC E. faecalis (VRE) value was measured for C=C1C(=O)O[C@H](c2ccccc2O)[C@@H]1c1cccc(C#N)c1 (racemic) [Compound 50] ?
>128 µg/mL

Could you share which MIC E. faecalis (VRE) value was measured for COc1cc(C2OC(=O)C(CN3CCCCC3)C2c2ccccc2Br)ccc1OCc1ccccc1 (racemic) [Compound 27] ?
>128 µg/mL

Could you share which MIC E. faecalis (VRE) value was measured for C=C1C(=O)O[C@H](c2c(OC)cc(OC)cc2OC)[C@@H]1c1ccc(C(F)(F)F)cc1 (racemic) [Compound 61] ?
>128 µg/mL

Could you share which MIC E. faecalis (VRE) value was measured for C=C1C(=O)OC(CCCCCCCC)C1C=Cc1ccccc1 (racemic) [Compound 51] ?
>128 µg/mL

Could you share which MIC E. faecalis (VRE) value was measured for CC(C)(C)[Si](C)(C)OCCC1OC(=O)C(CN2CCCCC2)C1c1cccc(Br)c1 (racemic) [Compound 48] ?
>128 µg/mL

Could you share which MIC E. faecalis (VRE) value was measured for C=C1C(=O)O[C@H](c2ccc(OCc3ccccc3)c(OC(C)=O)c2)[C@@H]1c1ccccc1Br (racemic) [Compound 85] ?
>128 µg/mL
